TARGET ENTITY: Cholinesterase (Equus caballus)
Sequence (P81908 whole entry): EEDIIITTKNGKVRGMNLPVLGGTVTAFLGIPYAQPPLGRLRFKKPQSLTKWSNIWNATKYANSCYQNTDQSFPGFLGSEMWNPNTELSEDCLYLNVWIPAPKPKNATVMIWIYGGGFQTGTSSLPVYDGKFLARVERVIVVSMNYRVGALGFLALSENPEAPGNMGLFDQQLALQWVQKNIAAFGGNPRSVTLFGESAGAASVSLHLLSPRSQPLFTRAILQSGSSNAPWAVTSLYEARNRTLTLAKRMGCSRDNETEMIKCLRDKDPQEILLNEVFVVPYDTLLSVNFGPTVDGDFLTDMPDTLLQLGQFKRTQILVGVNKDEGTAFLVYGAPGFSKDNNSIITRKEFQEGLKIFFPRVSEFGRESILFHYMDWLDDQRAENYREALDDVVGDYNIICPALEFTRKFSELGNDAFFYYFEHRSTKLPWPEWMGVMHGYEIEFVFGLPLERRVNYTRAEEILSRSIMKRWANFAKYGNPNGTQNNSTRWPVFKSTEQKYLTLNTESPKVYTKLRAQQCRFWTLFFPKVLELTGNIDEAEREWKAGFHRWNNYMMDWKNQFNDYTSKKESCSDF
ASSAY PROCEDURE: Inhibition of equine serum BuChE after 15 mins
TEST READOUT: pIC50
Answer as the number alone; pIC50 is minus log10 of concentration in mol/L.

Ask: State, in one line, measured pIC50 of O=C1N(CC2CCN(Cc3ccccc3)CC2)c2ccccc2C1(O)c1ccccc1 (racemic)
Result: 5.18
